Tested on: HaCaT
Assay: Cytotoxicity against human HaCaT cells after 72 hrs by MTT assay
Type: functional, cell-based
pIC50: −log10 of the molar value.

>  <compound>
COc1cc([C@@H]2c3cc4c(cc3[C@@H](O[C@@H]3O[C@@H]5CO[C@@H](C)O[C@H]5[C@H](O)[C@H]3O)[C@H]3COC(=O)[C@H]23)OCO4)cc(OC)c1O [ETOPOSIDE]

>  <comparison-operator>
=

>  <pIC50>
6.26

$$$$
>  <compound>
COC(=O)[C@@]12Oc3ccc(-c4ccc5c(c4O)C(O)C4=C(O)C[C@H](C)[C@@H](O)[C@]4(C(=O)OC)O5)c(O)c3C(=O)C1=C(O)C[C@H](C)[C@H]2O (some centres not stated)

>  <comparison-operator>
=

>  <pIC50>
5.43

$$$$
>  <compound>
COc1c(Cl)c(C)c2c(c1Cl)OC(=O)c1c(cc(O)c(Cl)c1C)O2

>  <comparison-operator>
=

>  <pIC50>
5.37

$$$$
>  <compound>
COc1c(Cl)c(C)c2c(c1Cl)OC(=O)c1c(C)c(Cl)c(O)c(Cl)c1O2

>  <comparison-operator>
<

>  <pIC50>
5.00

$$$$
>  <compound>
COC(=O)c1c(Oc2c(C)c(Cl)c(OC)c(Cl)c2O)cc(OC)c(Cl)c1C

>  <comparison-operator>
<

>  <pIC50>
5.00

$$$$
>  <compound>
COC(=O)[C@@]12Oc3ccc(-c4ccc5c(c4O)C(=O)C4=C(O)C[C@H](C)[C@H](O)[C@]4(C(=O)OC)O5)c(O)c3C(=O)C1=C(O)C[C@H](C)[C@@H]2O

>  <comparison-operator>
<

>  <pIC50>
5.00

$$$$
>  <compound>
COc1cc2c(c(C)c1Cl)Oc1cc(OC)c(Cl)c(C)c1C(=O)O2

>  <comparison-operator>
=

>  <pIC50>
5.21

$$$$
